Test system: Escherichia coli ATCC 10536
test_method_notes: "In vitro" MIC, Escherichia coli ATCC 10536
Type: cell-based
condition_description: ATCC10536; Escherichia coli ATCC 10536; dextrose agar, 37° C., 20 hours; read-out: "In vitro" MIC
measurement_kind: MIC

1) CNn1cc(C(=O)O)c(=O)c2cc(F)c(-n3cccc3)cc21 :: ≤ 0.062 µg/mL
2) O=C(O)c1cn(CCF)c2cc(-n3cccc3)c(F)cc2c1=O :: ≤ 0.031 µg/mL

From here, focus on the item given below.
// recorded MIC for "O=C(O)c1cn(C2CC2)c2cc(-n3cccc3)c(F)cc2c1=O" : < 0.06 µg/mL
